Recorded measurements of Kd, one per entry
molecular target: T1, monomeric human CSF1R ectodomain protein (human, UniProt P07333 20-517); test: SPR Biacore, IgG captured, monomeric CSF1R analyte
T1 construct: also called biotinylated monomeric human CSF1R
Kindly answer with a numeric value in nM, unit omitted.

Worked examples follow.
30E06 (antibody, human IgG4, V domains shown, Library-derived clone; tested as human IgG4(S228P) / human Ckappa IgG; also called 30E6; mAb-3) VH: QVQLVQSGAEVKKPGSSVKVSCKASGYTFTSYYMIWVRQAPGQGLEWMGDINPYNGGTTYAQKFQGRVTITADESTSTAYMELSSLRSEDTAVYYCAREGPYFSNLYVMDYWGQGTLVTVSS VL: EIVLTQSPATLSLSPGERATLSCRASQSVSYEGENYLAWYQQKPGQAPRLLIYAASNLATGIPARFSGSGSGTDFTLTISSLEPEDFAVYYCQLSNEDLLTFGGGTKVEIK: 0.11
MH6 (antibody, V domains shown, Designer clone, human IgG4(S228P)/Ckappa IgG) VH: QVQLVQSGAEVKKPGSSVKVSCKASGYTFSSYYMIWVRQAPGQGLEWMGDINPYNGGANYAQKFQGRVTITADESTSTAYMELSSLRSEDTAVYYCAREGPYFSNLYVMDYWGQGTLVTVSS VL: EIVLTQSPATLSLSPGERATLSCRASQSVSYEGENYLAWYQQKPGQAPRLLIYAASNRATGIPARFSGSGSGTDFTLTISSLEPEDFAVYYCQLSNQDLLTFGGGTKVEIK: 0.88

Q: Requested field: Kd. Item: 29D10 (antibody, human IgG4, V domains shown, Library-derived clone, tested as human IgG4(S228P)/Ckappa IgG; framework residue limits counted on the grafts) VH: QVQLVQSGAEVKKPGSSVKVSCKASGYTFTSYYMIWVRQAPGQGLEWMGDINPYNGGANFAQKFQGRVTITADESTSTAYMELSSLRSEDTAVYYCAREGPYFSNLYVMDYWGQGTLVTVSS VL: EIVLTQSPATLSLSPGERATLSCRASQSVSYEGENYLNWYQQKPGQAPRLLIYAASNRATGIPARFSGSGSGTDFTLTISSLEPEDFAVYYCQLSNEDLLTFGGGTKVEIK
Ans: 0.2

Q: Requested field: Kd. Item: MH5 (antibody, human IgG4, V domains shown, Designer (maximally humanized) clone; tested as human IgG4(S228P)/Ckappa IgG; also called mAb-2) VH: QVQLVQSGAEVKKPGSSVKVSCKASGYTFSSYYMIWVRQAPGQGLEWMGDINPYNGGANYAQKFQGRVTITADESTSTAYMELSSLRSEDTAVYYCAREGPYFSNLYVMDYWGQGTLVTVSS VL: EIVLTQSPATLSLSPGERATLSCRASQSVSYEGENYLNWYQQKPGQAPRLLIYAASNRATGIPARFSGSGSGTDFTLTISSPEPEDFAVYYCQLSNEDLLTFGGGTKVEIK
Ans: 0.22

Q: Requested field: Kd. Item: murine anti-CSF1R antibody 0301 (mu0301), v-domains in human IgG4(S228P) format (antibody, V domains shown) VH: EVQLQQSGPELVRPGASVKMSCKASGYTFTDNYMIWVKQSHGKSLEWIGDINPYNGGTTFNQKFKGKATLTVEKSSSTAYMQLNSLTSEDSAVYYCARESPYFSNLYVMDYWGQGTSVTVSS VL: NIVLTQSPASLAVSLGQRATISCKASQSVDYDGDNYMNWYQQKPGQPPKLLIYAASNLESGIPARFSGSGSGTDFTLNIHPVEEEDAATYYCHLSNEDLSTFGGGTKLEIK
Ans: 0.024
